The reported measurements were obtained from patent US20250250357A1.

# Tested on: T1, human MSLN-R3-his protein (human, UniProt Q13421 487-598)
# T1 construct: Region 3 of human mesothelin, made in HEK293E cells, His-tagged; also called human MSLN-R3 protein; hMSLN-R3-his; not shown: His tag
# T1 sequence (Q13421 495-606): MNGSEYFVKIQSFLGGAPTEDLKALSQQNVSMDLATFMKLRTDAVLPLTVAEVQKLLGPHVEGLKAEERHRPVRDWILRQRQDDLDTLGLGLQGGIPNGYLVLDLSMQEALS
# Experimental protocol: ELISA on coated MSLN-R3; antibody 0.001 nM
Measurement label: OD450 (OD450)
Express the result in OD450 but write the number alone.

Worked examples follow.
1) S009-F8-18.9 (antibody, human IgG1, kappa, V domains shown) VH: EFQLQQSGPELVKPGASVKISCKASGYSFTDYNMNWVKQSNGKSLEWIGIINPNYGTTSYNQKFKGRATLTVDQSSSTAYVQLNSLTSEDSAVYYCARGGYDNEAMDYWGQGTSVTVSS VL: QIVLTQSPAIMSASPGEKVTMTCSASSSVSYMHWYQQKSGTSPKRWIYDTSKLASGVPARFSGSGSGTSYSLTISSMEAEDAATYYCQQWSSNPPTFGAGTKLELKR ... 0.05
2) S009-F8-22.23 (antibody, human IgG1, kappa, V domains shown) VH: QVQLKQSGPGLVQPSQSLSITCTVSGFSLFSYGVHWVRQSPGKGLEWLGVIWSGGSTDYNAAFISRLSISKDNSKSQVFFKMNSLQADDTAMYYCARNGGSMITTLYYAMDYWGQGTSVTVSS VL: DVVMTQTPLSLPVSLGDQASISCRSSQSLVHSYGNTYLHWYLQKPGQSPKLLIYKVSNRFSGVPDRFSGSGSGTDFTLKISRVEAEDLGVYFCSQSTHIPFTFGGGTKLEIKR ... 0.04
3) Tab106 (YP218, hIgG1) (antibody, V domains shown, also called YP218 human IgG1 antibody) VH: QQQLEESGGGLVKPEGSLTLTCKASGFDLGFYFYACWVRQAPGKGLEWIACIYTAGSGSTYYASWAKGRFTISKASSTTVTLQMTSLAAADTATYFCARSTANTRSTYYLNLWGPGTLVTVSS VL: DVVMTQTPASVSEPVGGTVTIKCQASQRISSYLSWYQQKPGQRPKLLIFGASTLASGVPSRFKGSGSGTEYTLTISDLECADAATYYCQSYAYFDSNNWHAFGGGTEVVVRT ... 0.14

// moving on: another record for OD450
query: Recorded OD450 of S009-F8-9.16 (antibody, human IgG1, kappa, V domains shown) VH: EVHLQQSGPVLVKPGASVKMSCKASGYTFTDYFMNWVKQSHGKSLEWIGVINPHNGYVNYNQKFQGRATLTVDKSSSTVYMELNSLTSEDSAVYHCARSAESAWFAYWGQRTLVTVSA VL: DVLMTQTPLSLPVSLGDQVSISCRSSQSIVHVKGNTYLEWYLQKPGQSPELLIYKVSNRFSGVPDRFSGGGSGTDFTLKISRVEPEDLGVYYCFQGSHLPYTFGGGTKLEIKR , please.
result: 0.11
